- SYSTEM NAME: Progesterone receptor (Homo sapiens)
- Sequence (P06401 whole entry): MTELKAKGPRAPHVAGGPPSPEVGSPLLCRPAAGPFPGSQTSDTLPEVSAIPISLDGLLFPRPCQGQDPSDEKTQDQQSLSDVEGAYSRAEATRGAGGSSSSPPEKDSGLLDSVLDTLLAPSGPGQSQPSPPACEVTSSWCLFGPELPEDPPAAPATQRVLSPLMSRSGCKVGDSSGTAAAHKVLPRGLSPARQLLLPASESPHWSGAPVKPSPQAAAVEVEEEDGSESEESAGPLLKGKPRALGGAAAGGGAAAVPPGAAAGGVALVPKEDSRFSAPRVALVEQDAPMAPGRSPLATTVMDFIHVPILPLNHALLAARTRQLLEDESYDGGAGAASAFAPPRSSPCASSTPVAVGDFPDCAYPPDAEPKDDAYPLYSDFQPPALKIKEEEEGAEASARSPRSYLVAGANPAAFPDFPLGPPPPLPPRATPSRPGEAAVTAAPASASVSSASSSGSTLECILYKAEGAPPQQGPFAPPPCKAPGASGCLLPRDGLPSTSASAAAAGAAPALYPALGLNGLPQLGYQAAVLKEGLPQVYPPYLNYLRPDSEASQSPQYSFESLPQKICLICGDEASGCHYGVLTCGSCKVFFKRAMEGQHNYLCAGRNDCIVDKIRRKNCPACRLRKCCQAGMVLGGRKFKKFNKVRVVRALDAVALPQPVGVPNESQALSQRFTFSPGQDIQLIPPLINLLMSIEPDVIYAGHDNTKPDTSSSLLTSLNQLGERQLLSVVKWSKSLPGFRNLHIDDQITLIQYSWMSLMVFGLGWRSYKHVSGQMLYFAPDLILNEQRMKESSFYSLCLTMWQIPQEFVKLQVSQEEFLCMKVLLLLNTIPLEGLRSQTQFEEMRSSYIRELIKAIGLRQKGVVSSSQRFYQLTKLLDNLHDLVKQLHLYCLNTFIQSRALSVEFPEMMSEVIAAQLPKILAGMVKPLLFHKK
- ASSAY TEXT: Antagonist activity at PR in human T47D cells assessed as inhibition of progesterone-induced response after 24 hrs by alkaline phosphatase assay
TEST READOUT: IC50 (µM)
Please give a number only; it is taken to be in µM.

The molecule listed as N#Cc1ccc(S(=O)(=O)N(Cc2ccccc2)c2ccc(Oc3ccccc3)cc2)cc1 has a reported IC50 of 8

----------
- SYSTEM NAME: Glucocorticoid receptor (Homo sapiens) (UniProt P04150)
- Sequence (P04150 whole entry): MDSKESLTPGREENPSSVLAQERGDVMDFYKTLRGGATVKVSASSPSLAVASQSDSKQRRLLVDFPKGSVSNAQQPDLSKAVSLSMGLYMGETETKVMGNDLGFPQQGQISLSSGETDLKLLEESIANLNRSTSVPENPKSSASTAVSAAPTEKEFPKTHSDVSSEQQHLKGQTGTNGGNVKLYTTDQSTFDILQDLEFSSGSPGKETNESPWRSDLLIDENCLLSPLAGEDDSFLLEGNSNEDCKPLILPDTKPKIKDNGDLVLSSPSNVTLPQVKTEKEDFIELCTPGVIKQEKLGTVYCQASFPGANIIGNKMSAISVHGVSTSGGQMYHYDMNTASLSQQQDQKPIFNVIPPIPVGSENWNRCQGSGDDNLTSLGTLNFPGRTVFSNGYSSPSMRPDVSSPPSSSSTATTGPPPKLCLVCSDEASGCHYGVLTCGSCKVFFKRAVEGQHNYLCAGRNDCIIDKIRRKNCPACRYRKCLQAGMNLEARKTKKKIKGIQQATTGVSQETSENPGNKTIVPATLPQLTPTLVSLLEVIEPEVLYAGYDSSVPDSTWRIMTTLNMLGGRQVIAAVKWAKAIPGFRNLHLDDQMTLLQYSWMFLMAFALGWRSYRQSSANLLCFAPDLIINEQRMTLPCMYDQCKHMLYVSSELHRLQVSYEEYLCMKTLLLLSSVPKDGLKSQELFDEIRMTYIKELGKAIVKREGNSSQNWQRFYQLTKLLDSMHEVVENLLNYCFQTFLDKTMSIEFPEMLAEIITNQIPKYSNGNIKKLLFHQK
- ASSAY TEXT: Antagonist activity at human GRalpha expressed in HEK293 cells assessed as inhibition of dexamethasone-induced response at 30 uM after 24 hrs by luciferase reporter gene assay relative to control
- Assay type: cell-based
Calls of active or inactive are those of the source. The calls are words filed in the database; no cut-off is given here.
TEST READOUT: inhibition

Some solved entries appear below for comparison.
Cc1ccc(CN(c2ccc(Oc3ccccc3)cc2)S(=O)(=O)c2ccc(C#N)cc2)cc1 yielded inhibition of < 50%

Noted for O=S(=O)(c1ccc(S(F)(F)(F)(F)F)cc1)N(Cc1ccccc1)c1ccc(Oc2ccccc2)cc1 : its inhibition reads < 50%

For N#Cc1ccc(S(=O)(=O)N(CC2CC2)c2ccc(Oc3ccccc3)cc2)cc1 the compound record lists inhibition as inactive

Lab note: COc1ccc(CN(c2ccc(Oc3ccccc3)cc2)S(=O)(=O)c2ccc(C#N)cc2)cc1 gave inhibition of inactive

Further cases:
get_value(item= O=S(=O)(c1ccc(Br)cc1)N(Cc1ccccc1)c1ccc(Oc2ccccc2)cc1 , readout=inhibition) returns < 50%

Query COc1cccc(Oc2ccc(N(Cc3ccccc3)S(=O)(=O)c3ccc(C#N)cc3)cc2)c1 yields inhibition of inactive

The compound identified as COc1ccccc1Oc1ccc(N(Cc2ccccc2)S(=O)(=O)c2ccc(C#N)cc2)cc1 registered its inhibition at inactive

Field inhibition (entry CC(C)(C)c1ccc(S(=O)(=O)N(Cc2ccccc2)c2ccc(Oc3ccccc3)cc2)cc1 ) reads < 50%

Memo: N#Cc1ccc(S(=O)(=O)N(Cc2cccc3ccccc23)c2ccc(Oc3ccccc3)cc2)cc1 , reported inhibition: < 50%

Short answer for N#Cc1ccccc1S(=O)(=O)N(Cc1ccccc1)c1ccc(Oc2ccccc2)cc1 : inhibition was < 50%
